Just for reference, patent US20240294519A1 is where these values come from.

TARGET_SYSTEM: 15-PGDH (Homo sapiens)
Construct: 15-PGDH is highly expressed in resting human lung adenocarcinoma cells (A549); endogenous in cells; host or cells: A549
Sequence (P15428 1-266): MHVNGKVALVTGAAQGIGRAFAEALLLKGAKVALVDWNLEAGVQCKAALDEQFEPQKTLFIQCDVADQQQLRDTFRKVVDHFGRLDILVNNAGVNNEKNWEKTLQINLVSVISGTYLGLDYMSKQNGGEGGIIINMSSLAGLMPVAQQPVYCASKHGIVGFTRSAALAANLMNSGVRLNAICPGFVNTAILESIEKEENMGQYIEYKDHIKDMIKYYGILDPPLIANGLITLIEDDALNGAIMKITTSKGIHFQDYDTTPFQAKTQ
EXPERIMENTAL_PROTOCOL: A549 cell based assay: PGE2 in supernatant after IL-1β (HTRF)
MEASUREMENT_SETUP: A549 cells; fold induction of PGE2, IL-1β plus test article versus IL-1β only; 0.01 μM
MEASUREMENT_LABEL: PGE2 - HTRF over IL-β induction at 0.01 μM

[A] CNc1nc2ccc(-n3ccc4cc(C(=O)N5CCC(F)(F)CC5)cnc43)cn2n1
[B] Cc1nc2ccc(-n3ccc4cc(C(=O)N5CCC(F)(F)CC5)cnc43)cn2n1
Of A and B , whose reported PGE2 - HTRF over IL-β induction at 0.01 μM is numerically smaller? Mark your answer with the label of the selected entry.
B
